Where these numbers come from: the EternaBench riboswitch data

System: MS2 coat protein
Assay: apparent Kd, MS2 coat protein; higher = weaker binding; RNA-MaP array; tryptophan 2.4 mM where present
Settings: designed as: OFF switch for tryptophan; no ligand
parameter: apparent Kd (nM)
Numbers only; they are read as nM.

> print(dat)
                                   residues    measuredtarget  resultnumber
1  GGAAAAGAAAGAAAAGAAAUCCCUCCCUCCCGAGGACCGGUACGGCCGCCACUCGCCCUCCCUCCCACAUGAGGAUCACCCAUGU  MS2 coat protein          23.5

Query string: Hello, please tell me recorded apparent Kd for this one: AUCAUAAUAGACUCGUUUGAUUAUAUGGAACGAGGACCGGUACGGCCGCCACUCGUGAUUUACAUGAGGAUCACCCAUGUUAGCA
Result string: 15.7

Query string: Supply apparent Kd value. Item: AGUUCCAGGUCGGCCGCCACUGGCAUGGCCGGUCCUCGGACUUACAUGAGGAUCACCCAUGUGAACAGGACCGGGACCGCAUGGG
Result string: 38.3

Query string: Tell me its apparent Kd given GUCCAAAGGUCGGCCGCCACUGUAGGAUGUGUUCUUUCACAUGAGGAUCACCCAUGUUGUUAUUAUAGGACCGGGAUUGUAGGAC as the entry.
Result string: 20.5

Query string: Dear colleague, please send me the reported apparent Kd for GACGAUAUGAUACGUCAGCAAUCCUCGAAACGAGGACCGGUACGGCCGCCACUCGAGUGAUACACAUGAGGAUCACCCAUGUACC when you can.
Result string: 39.3
